Assay: recombinant UMI read abundance after kanamycin selection (control-corrected) (log10(CPM+1)); higher = more efficient recombination; extreme values may be limits of the assay; sequences stand for … in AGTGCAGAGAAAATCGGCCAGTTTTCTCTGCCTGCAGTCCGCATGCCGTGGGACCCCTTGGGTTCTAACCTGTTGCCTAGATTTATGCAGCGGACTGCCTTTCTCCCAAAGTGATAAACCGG…AGGTTGGTTTCACT; site = the 11-nt donor;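 also: IS621 bridge recombinase in Escherichia coli cells against a fixed T5 target plasmid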
Consider the following sequences and their measured recombinant UMI read abundance (log10) readings.
measured parameter: recombinant UMI read abundance (log10)

{"monomer sequence": "TGCCGTTCATGGACCGGTTTTCCCGGTAATCCGTATTTGAG (site TGCCGTTCTCT)", "measured parameter": "recombinant UMI read abundance (log10)", "data value": 0.00558}
{"monomer sequence": "TATCTAGCATGGACCGGTTTTCCCGGTAATCCGTATTTGAA (site TAACTAGCTTT)", "measured parameter": "recombinant UMI read abundance (log10)", "data value": 0.0105}
{"monomer sequence": "AGCCTTTCATGGACCGGTTTTCCCGGTAATCCGTATTTGCC (site AGCCTTTCTGA)", "measured parameter": "recombinant UMI read abundance (log10)", "data value": 0}
{"monomer sequence": "AGGAAGACATGGACCGGTTTTCCCGGTAATCCGTATTTGCG (site AGGAAGACTTG)", "measured parameter": "recombinant UMI read abundance (log10)", "data value": 1.73}
{"monomer sequence": "TTGGAGGCATGGACCGGTTTTCCCGGTAATCCGTATTTGTG (site TTGGAGGCTCA)", "measured parameter": "recombinant UMI read abundance (log10)", "data value": 0.791}

Where do these numbers come from? They come from the supplement of paper PMC11208160.
